# Study target: Ole1 (Saccharomyces cerevisiae)
# Construct: expressed in transfected cells; host or cells: S. cerevisiae ole1Δ strain (W303 pdr1Δ pdr3Δ background), plasmid pRS316 with TDH3 promoter and CYC1 terminator
# Sequence (P21147 whole entry): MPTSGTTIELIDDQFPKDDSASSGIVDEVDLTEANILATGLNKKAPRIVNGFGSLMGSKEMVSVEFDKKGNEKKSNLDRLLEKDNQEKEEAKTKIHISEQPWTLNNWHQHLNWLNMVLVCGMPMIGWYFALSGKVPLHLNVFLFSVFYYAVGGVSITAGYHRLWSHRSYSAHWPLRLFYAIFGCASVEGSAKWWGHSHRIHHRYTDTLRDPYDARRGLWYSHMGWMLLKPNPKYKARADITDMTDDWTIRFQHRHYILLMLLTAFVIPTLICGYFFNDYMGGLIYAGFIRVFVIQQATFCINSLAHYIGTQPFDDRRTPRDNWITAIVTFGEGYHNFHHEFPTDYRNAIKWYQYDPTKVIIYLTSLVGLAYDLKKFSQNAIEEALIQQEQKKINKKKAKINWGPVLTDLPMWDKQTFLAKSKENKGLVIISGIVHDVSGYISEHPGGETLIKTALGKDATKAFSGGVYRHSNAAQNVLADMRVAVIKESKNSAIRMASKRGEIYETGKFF
# Experimental protocol: Growth inhibition of yeast strain expressing Ole1 as sole desaturase
# Type: cell-based
# Run parameters: yeast strain expressing Ole1 as sole desaturase
# OLE1 % Max Inhibition listing for each entry below
Respond with the bare value in %.

Which OLE1 % Max Inhibition is reported for this compound? `Cc1nn(C)c2cc(-c3noc(C4CCN(C(=O)CNC(=O)c5ccccc5)CC4)n3)ncc12`
90.17

Which OLE1 % Max Inhibition is reported for this compound? `COc1ccc(-c2noc(C3CCN(C(=O)CNC(=O)C(C)C)CC3)n2)cc1OC`
109.20

Which OLE1 % Max Inhibition is reported for this compound? `N#Cc1ccc(-c2noc(C3CCN(C(=O)[C@H]4CC(=O)N(c5ccccc5)C4)CC3)n2)s1`
98.49

Continuing:
Which OLE1 % Max Inhibition is reported for this compound? `Cc1nn(C)c2cc(-c3noc(N4CCC(C(=O)N5CCO[C@@H](c6ccccc6)C5)CC4)n3)ccc12`
2.27

Which OLE1 % Max Inhibition is reported for this compound? `Cc1nn(C)c2cc(-c3noc(N4CCN(C(=O)c5cccc(F)c5)CC4)n3)ccc12`
63.00

Which OLE1 % Max Inhibition is reported for this compound? `CCOc1ccc(-c2noc(C3CCN(C(=O)[C@H]4CCN(C(=O)c5ccccc5)C4)CC3)n2)cc1OC`
84.80

Which OLE1 % Max Inhibition is reported for this compound? Cc1cccc(-c2nc(C3CCN(C(=O)C4CC(=O)N(c5ccc(C)c(C)c5)C4)CC3)no2)c1 (stereo not shown)
102.56

----------
# Study target: SCD1 (Homo sapiens, UniProt O00767)
# Construct: host or cells: S. cerevisiae ole1Δ strain (W303 pdr1Δ pdr3Δ background), plasmid pRS316 with TDH3 promoter and CYC1 terminator
# Sequence (O00767 whole entry): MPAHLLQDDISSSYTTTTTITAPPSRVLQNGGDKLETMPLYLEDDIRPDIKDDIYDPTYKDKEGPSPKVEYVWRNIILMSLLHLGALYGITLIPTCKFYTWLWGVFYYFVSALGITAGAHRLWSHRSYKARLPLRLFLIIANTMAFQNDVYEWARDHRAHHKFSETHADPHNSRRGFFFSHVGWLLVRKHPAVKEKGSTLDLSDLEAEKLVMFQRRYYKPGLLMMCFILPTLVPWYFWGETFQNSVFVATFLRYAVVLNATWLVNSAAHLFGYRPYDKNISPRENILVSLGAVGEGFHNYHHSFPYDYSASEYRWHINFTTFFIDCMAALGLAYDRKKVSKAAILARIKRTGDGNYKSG
# Experimental protocol: Growth inhibition of humanized yeast strain expressing SCD1 as sole desaturase
# Format: cell-based
# Run parameters: humanized yeast strain expressing SCD1
Test readout: SCD1 % Max Inhibition (%)
Respond with the bare value in %.

Completed entries (count: 6):
Lookup: SCD1 % Max Inhibition / SCD1 (Homo sapiens, UniProt O00767) / `Cc1nn(C)c2cc(-c3noc(N4CCN(C(=O)[C@H]5CC(=O)N(c6ccccc6)C5)CC4)n3)cnc12`
77.22

Lookup: SCD1 % Max Inhibition / SCD1 (Homo sapiens, UniProt O00767) / `COc1ccc(-c2noc(C3CCN(C(=O)CNC(=O)C4CCCCC4)CC3)n2)cc1OC`
63.58

Lookup: SCD1 % Max Inhibition / SCD1 (Homo sapiens, UniProt O00767) / `COc1ccc(-c2noc(C3CCN(CCNC(=O)c4ccccc4)CC3)n2)cc1OC`
84.16

Lookup: SCD1 % Max Inhibition / SCD1 (Homo sapiens, UniProt O00767) / `O=C(NCC(=O)N1CCC(c2nc(-c3cccc(F)c3)no2)CC1)c1ccccc1`
90.77

Lookup: SCD1 % Max Inhibition / SCD1 (Homo sapiens, UniProt O00767) / CCOC(=O)C(C)(C)n1cc2ccc(-c3noc(C4CCN(C(=O)C5CC(=O)N(c6ccccc6)C5)CC4)n3)cc2n1 (stereo not shown)
80.72

Lookup: SCD1 % Max Inhibition / SCD1 (Homo sapiens, UniProt O00767) / `Cc1nn(C)c2cc(-c3noc(N4CCN(C(=O)CN5Cc6ccccc6C5=O)CC4)n3)ccc12`
95.22

Continuing:
Lookup: SCD1 % Max Inhibition / SCD1 (Homo sapiens, UniProt O00767) / COc1cccc(-c2noc(C3CC(=O)N(c4ccc(C)c(C)c4)C3)n2)c1 (stereo not shown) [Compound 490]
63.84

Lookup: SCD1 % Max Inhibition / SCD1 (Homo sapiens, UniProt O00767) / `Cc1nn(C(C)C)c2cc(-c3noc(C4CCN(C(=O)OC(C)(C)C)CC4)n3)ccc12`
59.1

Lookup: SCD1 % Max Inhibition / SCD1 (Homo sapiens, UniProt O00767) / `Cc1nn(C)c2cc(-c3noc(C4CCN(C(=O)[C@@H](CO)NC(=O)c5ccccc5)CC4)n3)ccc12`
86.16

Lookup: SCD1 % Max Inhibition / SCD1 (Homo sapiens, UniProt O00767) / `Cc1nn(C)c2cc(-c3noc(N4CC5(CN(C(=O)CNC(=O)c6ccccc6)C5)C4)n3)ccc12`
76.79

Lookup: SCD1 % Max Inhibition / SCD1 (Homo sapiens, UniProt O00767) / `COc1cc(OC)cc(-c2noc(C3CCN(C(=O)CNC(=O)c4ccccc4)CC3)n2)c1`
72.13

Lookup: SCD1 % Max Inhibition / SCD1 (Homo sapiens, UniProt O00767) / `O=C(NCC(=O)N1CCC(c2nc(-c3ccc4nsnc4c3)no2)CC1)c1ccccc1`
76.89

----------
# Study target: SCD5 (Homo sapiens, UniProt Q86SK9)
# Construct: host or cells: S. cerevisiae ole1Δ strain (W303 pdr1Δ pdr3Δ background), plasmid pRS316 with TDH3 promoter and CYC1 terminator
# Sequence (Q86SK9 1-330): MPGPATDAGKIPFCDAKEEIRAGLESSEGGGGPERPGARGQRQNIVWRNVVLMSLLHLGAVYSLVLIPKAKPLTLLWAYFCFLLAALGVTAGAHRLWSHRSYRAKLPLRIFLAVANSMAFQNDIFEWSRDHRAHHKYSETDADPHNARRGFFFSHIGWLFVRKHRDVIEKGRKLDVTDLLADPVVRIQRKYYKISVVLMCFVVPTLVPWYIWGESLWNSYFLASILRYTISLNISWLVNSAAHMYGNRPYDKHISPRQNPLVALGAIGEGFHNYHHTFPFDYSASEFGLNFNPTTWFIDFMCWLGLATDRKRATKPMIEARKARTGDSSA
# Experimental protocol: Growth inhibition of humanized yeast strain expressing SCD5 as sole desaturase
# Format: cell-based
# Run parameters: humanized yeast strain, 40 h
Test readout: IC50 (nM)
Respond with the bare value in nM.

Completed entries (count: 5):
Which IC50 is reported for this compound? O=C(N1CCC(c2noc(-c3ccnc(C4CCOC4)c3)n2)CC1)C1(F)CC1 (centres unmarked) [Compound 1087]
41

Which IC50 is reported for this compound? CC(C)n1ncc2ccc(-c3noc(N4CCC(C(CO)CCl)CC4)n3)cc21 (centres unmarked) [Compound 765]
19300

Which IC50 is reported for this compound? COC(=O)N1CCN(c2noc(-c3ccc4cnn(C5CN(C)C5)c4c3)n2)CC1 [Compound 960]
10

Which IC50 is reported for this compound? CC(C)n1nc(CCS(C)(=O)=O)c2ccc(-c3noc(C4CCN(C(=O)OC(C)(C)C)CC4)n3)cc21 [Compound 767]
10

Which IC50 is reported for this compound? COC(=O)N1CCC(c2noc(-c3ccc4cnc(C5COC5)n4c3)n2)CC1 [Compound 917]
100

Continuing:
Which IC50 is reported for this compound? CC(C)(C)OC(=O)N1CCC(c2nnc(-c3ccc4cnn(C5CCOC5)c4c3)o2)CC1 (centres unmarked) [Compound 971]
89

Which IC50 is reported for this compound? CC(C)C(=O)N1CCC(c2noc(-c3ccc4oc(=O)n(C5COC5)c4c3)n2)CC1 [Compound 1126]
2740

Which IC50 is reported for this compound? O=C(N1CCN(c2noc(-c3ccc4cnn(C5COC5)c4c3)n2)CC1)C12CC(C1)C2 [Compound 843]
33

----------
# Study target: SCD5 (Homo sapiens, UniProt Q86SK9)
# Construct: host or cells: S. cerevisiae ole1Δ strain (W303 pdr1Δ pdr3Δ background), plasmid pRS316 with TDH3 promoter and CYC1 terminator
# Sequence (Q86SK9 1-330): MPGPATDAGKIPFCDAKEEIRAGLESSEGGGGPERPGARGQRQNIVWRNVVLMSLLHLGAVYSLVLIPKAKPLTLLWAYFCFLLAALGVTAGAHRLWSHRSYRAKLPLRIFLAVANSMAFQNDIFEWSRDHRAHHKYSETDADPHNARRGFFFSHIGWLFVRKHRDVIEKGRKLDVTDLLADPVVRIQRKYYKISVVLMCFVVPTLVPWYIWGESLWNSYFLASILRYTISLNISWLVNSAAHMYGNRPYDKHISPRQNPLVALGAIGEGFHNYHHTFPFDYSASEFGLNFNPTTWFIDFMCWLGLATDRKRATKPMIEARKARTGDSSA
# Experimental protocol: Growth inhibition of humanized yeast strain expressing SCD5 as sole desaturase
# Type: cell-based
# Run parameters: growth inhibition of humanized yeast strain expressing human SCD5
# pIC50 listing for each entry below
Interpret pIC50 as the negative base-10 log of the concentration measured in mol/L.

Which pIC50 is reported for this molecule? `CC(C)(C)CC(=O)N1CCN(c2nc(-c3ccc4cnn(C5COC5)c4c3)no2)CC1`
6.54

Which pIC50 is reported for this molecule? CC(C)n1ncc2ccc(-c3noc(C4CCN(C(=O)OC(C)(C)C)C=C4F)n3)cc21 (stereo not shown)
4.84

Which pIC50 is reported for this molecule? `CC1(OC(=O)N2CC(c3nc(-c4ccc5cnn(C6COC6)c5c4)no3)C2)CC1`
5.90

# context switch: different molecule, same pIC50
Which pIC50 is reported for this molecule? `O=C(c1ncccc1Cl)N1CCC(c2noc(-c3ccc4cnn(C5COC5)c4c3)n2)CC1`
5.62
